B1: Twister Ribozyme (parent)
chain: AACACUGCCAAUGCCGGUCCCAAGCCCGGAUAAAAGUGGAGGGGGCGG

- Variants of: B1
- procedure.details: self-cleavage, relative activity (ratio to wild type); higher = more cleavage; co-transcriptional
Label TRUE when self-cleavage is at or above 0.6; anything below gets FALSE.

Answered cases to consult:
variant.id	assigned.category
C3A C46G	FALSE
C21A G47U	FALSE
C3G U6G	FALSE
A32C A35C	TRUE
C5G G28A	FALSE
G16U G36C	FALSE
A1C G36A	FALSE
C8U A34G	FALSE

Query: Does C21U C46U have a reported self-cleavage of at least 0.6?
Response: FALSE

Query: Does C14U G16A have a reported self-cleavage of at least 0.6?
Response: TRUE

Query: Does C5U A30U have a reported self-cleavage of at least 0.6?
Response: TRUE
